Target Of Assay: Signal transducer and activator of transcription 1-alpha/beta (Homo sapiens)
Sequence (whole entry): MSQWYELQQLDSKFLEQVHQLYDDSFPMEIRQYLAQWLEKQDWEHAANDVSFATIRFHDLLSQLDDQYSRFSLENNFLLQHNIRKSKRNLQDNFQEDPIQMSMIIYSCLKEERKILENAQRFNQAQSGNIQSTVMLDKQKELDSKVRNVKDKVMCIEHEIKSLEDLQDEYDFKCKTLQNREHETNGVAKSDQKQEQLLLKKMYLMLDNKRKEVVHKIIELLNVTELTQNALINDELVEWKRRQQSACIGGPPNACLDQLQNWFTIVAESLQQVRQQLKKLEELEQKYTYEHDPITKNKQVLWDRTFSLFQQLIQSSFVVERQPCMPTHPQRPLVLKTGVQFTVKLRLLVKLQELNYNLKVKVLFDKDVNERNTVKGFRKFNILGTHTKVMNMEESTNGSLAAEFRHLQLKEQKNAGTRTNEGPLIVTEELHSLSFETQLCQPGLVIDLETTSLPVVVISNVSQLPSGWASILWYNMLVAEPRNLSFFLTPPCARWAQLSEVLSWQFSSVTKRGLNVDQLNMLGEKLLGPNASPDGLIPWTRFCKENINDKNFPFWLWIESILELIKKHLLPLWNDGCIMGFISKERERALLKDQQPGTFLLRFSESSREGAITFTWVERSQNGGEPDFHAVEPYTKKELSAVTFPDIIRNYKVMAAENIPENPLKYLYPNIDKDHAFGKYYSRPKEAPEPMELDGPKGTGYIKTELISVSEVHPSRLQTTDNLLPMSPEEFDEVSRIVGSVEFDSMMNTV
Protocol Description: Displacement of fluorescent peptide 5-FAM-G(pTyr)YIKTE- CONH2 from GST-tagged human STAT1b preincubated for 60 mins followed by fluorescent peptide addition measured after 30 mins by fluorescence polarization assay
Active and inactive are the calls of the source. No cut-off for these calls is given here.
Pick one: active, inactive

COc1cc(C=O)cc(Cl)c1OCc1ccc(C)cc1 : active
COc1cc(CNCC(=O)O)cc(Cl)c1OCc1ccc([N+](=O)[O-])cc1 : active
COc1cc(NC#N)cc(Cl)c1OCc1ccc(C)cc1 : active
COc1cc(CNc2nn[nH]n2)cc(Cl)c1OCc1ccc(C)cc1 : inactive

q: Could you check what this test reported for COc1cc(C=O)cc(Cl)c1OCc1ccc([N+](=O)[O-])cc1 ?
a: active

q: What did the test return for COc1cc(CNc2nn[nH]n2)cc(Cl)c1OCc1ccc([N+](=O)[O-])cc1 ?
a: inactive

q: Outcome logged for COc1cc(CNC#N)cc(Cl)c1OCc1ccc([N+](=O)[O-])cc1 in this assay:
a: active
